In this section, each of the compounds is paired with its reported drug sensitivity score.
# Tested on: OVCAR8
# Procedure Details: drug sensitivity score (DSS2) on cancer cell count; higher = more sensitive; extreme values may be limits of the assay
# Recorded Conditions: co-cultured fibroblast: BJHTERT; 72 h
Response body: numeric value in DSS, unit text excluded.

Compound	Tested On	drug sensitivity score, DSS
C1=N/C2=N/c3ccc(OCCN4CCCC4)c(c3)COC/C=C/COCc3cccc(c3)C(=C1)N2	OVCAR8	9.5
O=C(Nc1c[nH]nc1-c1nc2ccc(CN3CCOCC3)cc2[nH]1)NC1CC1	OVCAR8	10.7
CN(C)Cc1ccc(S(=O)(=O)n2ccc(/C=C/C(=O)NO)c2)cc1	OVCAR8	18.3
CCS(=O)(=O)Nc1ccc(Oc2ccc(F)cc2F)c(-c2cn(C)c(=O)c3[nH]ccc23)c1	OVCAR8	35.4
CO[C@@]12[C@H](COC(N)=O)C3=C(C(=O)C(C)=C(N)C3=O)N1C[C@@H]1N[C@@H]12	OVCAR8	4.2
CC[C@]1(O)C[C@H]2CN(CCc3c([nH]c4ccccc34)[C@@](C(=O)OC)(c3cc4c(cc3OC)N(C=O)[C@H]3[C@@](O)(C(=O)OC)[C@H](OC(C)=O)[C@]5(CC)C=CCN6CC[C@]43[C@@H]65)C2)C1	OVCAR8	11.5
Cc1ncc(Cl)cc1NCc1ccc(C(=O)N[C@@H](CC2CCCC2)C(=O)NC2CC2)s1	OVCAR8	0
O=C1CN2Cc3c(ccc(Cl)c3Cl)N=C2N1 [Anagrelide]	OVCAR8	0

Need drug sensitivity score of CC[C@H](C)C(=O)O[C@H]1C[C@@H](C)C=C2C=C[C@H](C)[C@H](CC[C@@H]3C[C@@H](O)CC(=O)O3)[C@H]21 , thanks.
1.7

I have this compound here, Cc1cc(C(C)Nc2ccccc2)c2nc(N3CCOCC3)cc(=O)n2c1 (stereo unspecified) , and I need its recorded drug sensitivity score.
8.5

Given the compound COc1cc(OC)cc(N(CCNC(C)C)c2ccc3ncc(-c4cnn(C)c4)nc3c2)c1 , what is its reported drug sensitivity score?
0

Given S=C(NCc1ccc2c(c1)OCO2)N1CCN(c2ncnc3c2oc2ccccc23)CC1 , state its recorded drug sensitivity score.
8.6

Quick check: drug sensitivity score of COc1cc2nccc(Oc3ccc(NC(=O)NC4CC4)c(Cl)c3)c2cc1C(N)=O ?
0

So what does the record say about drug sensitivity score for Cn1cc(C2=Nc3cc(NC(=O)C(N)C4CCCCC4)cc4c3C2=CNNC4=O)cn1 (stereo unspecified) ?
16.2

For the compound shown here, Nc1ccn([C@@H]2O[C@H](CO)[C@@H](O)C2(F)F)c(=O)n1 , give the reported drug sensitivity score.
29.5

* * *

# System: KURAMOCHI
# Procedure Details: drug sensitivity score (DSS2) on cancer cell count; higher = more sensitive; extreme values may be limits of the assay
# Recorded Conditions: co-cultured fibroblast: BJHTERT; 72 h
Entries and their drug sensitivity score
Could you give me the number in DSS? Just the number is fine.

The following molecules have reported results that may help.
> print(dat)
                                   molecule  endpoint.value
1  CC(C)N(CCCNC(=O)Nc1ccc(C(C)(C)C)cc1)C[C@H]1O[C@@H](n2cc(Br)c3c(N)ncnc32)[C@H](O)[C@@H]1O [SGC0946]             0.1
2  Cc1c(-c2ccc(N3CCc4cccc(C(=O)Nc5nc6ccccc6s5)c4C3)nc2C(=O)O)cnn1CC12CC3CC(CC(C3)C1)C2               3
3  CCc1cncnc1N1CCN(Cc2nc3ccc(C(F)(F)F)cc3[nH]2)CC1               1
4  N#CCNC(=O)c1ccc(-c2ccnc(Nc3ccc(N4CCOCC4)cc3)n2)cc1 [Momelotinib]             7.5

Moving on to another molecule below.
// lookup drug sensitivity score for CN(C)CC#Cc1ccc(OCCCc2sc(N3CCc4cccc(C(=O)Nc5nc6ccccc6s5)c4C3)nc2C(=O)O)c(F)c1
4.1

* * *

# Tested on: KURAMOCHI
# Procedure Details: drug sensitivity score (DSS2) on cancer cell count; higher = more sensitive; extreme values may be limits of the assay
# Recorded Conditions: co-cultured fibroblast: WI38; 72 h
Reported Metric: drug sensitivity score
Returns: string containing the number followed by the unit.

> print(dat)
                            molecule.smiles         reported.metric  endpoint.value
1  CC(C)(C)c1cc(NC(=O)Nc2ccc(-c3cn4c(n3)sc3cc(OCCN5CCOCC5)ccc34)cc2)no1  drug sensitivity score           0 DSS

// drug sensitivity score lookup, key: O=C1CCc2c(Oc3ccc4c(c3)[C@@H]3[C@H](O4)[C@H]3c3nc4cc(C(F)(F)F)ccc4[nH]3)ccnc2N1
5.3 DSS

What value of measured drug sensitivity score is listed for C=CC(=O)Nc1cccc(Oc2nc(Nc3ccc(N4CCN(C)CC4)cc3)nc3ccsc23)c1 ?
2.7 DSS

* * *

Overview of recorded drug sensitivity score for various compounds
# System: KURAMOCHI
# Procedure Details: drug sensitivity score (DSS2) on cancer cell count; higher = more sensitive; extreme values may be limits of the assay
# Recorded Conditions: co-cultured fibroblast: WI38; 72 h
API: value field is a number in DSS; no unit string.

Previously resolved entries follow.
> print(dat)
                                   compound  endpoint.value
1  O=C1Cc2cc(C(=O)NC3C[C@H]4CC[C@@H](C3)N4S(=O)(=O)CC3CCN(CCCC(F)(F)F)CC3)c(Cl)cc2N1 (some centres undefined)             0.1
2  CN(C)Cc1c(C(=O)NCCOc2ccc(C(=O)NO)cc2)oc2ccccc12 [Abexinostat]            20.6
3  CC(C)(C)c1nc(-c2cccc(NS(=O)(=O)c3c(F)cccc3F)c2F)c(-c2ccnc(N)n2)s1 [Dabrafenib]               0
4  COc1ccc(CCc2nc3cc(-c4c(C)noc4C)ccc3n2C[C@H](C)N2CCOCC2)cc1Cl [SGC-CBP30]             1.3
5  Cn1cc(-c2ccc(F)c(C(F)(F)F)c2)nc1C1CCN(c2ncnc3[nH]ncc23)CC1               0
6  O=C(NC1CCNCC1)c1n[nH]cc1NC(=O)c1c(Cl)cccc1Cl [AT7519]            18.8
7  NCCNc1ccc(NCCN)c2c1C(=O)c1ccncc1C2=O [Pixantrone]             0.1
8  Cc1cc([C@@H](C)Nc2ccccc2C(=O)O)c2nc(N3CCOCC3)cc(=O)n2c1 [AZD-6482]             1.5

Please look at the following compound next.
drug sensitivity score for O=C(O)c1ccc(-c2c[nH]c3ncc(-c4ccccc4)cc23)cc1C1CCCC1 ?
7.3

* * *

Collected drug sensitivity score values appear next to each entry.
# System: KURAMOCHI
# Procedure Details: drug sensitivity score (DSS2) on cancer cell count; higher = more sensitive; extreme values may be limits of the assay
# Recorded Conditions: co-cultured fibroblast: WI38; 72 h

Answered examples (2):
> print(dat)
                                   compound  endpoint.value
1  C[C@H]1CN(C2COC2)CCN1c1ccc(Nc2cc(-c3ccnc(N4CCn5c(cc6c5CC(C)(C)C6)C4=O)c3CO)cn(C)c2=O)nc1           0 DSS
2  CCCCNc1ncc(C(=O)NCc2ccc(-n3ccnc3)cc2)c(NC2CCC(O)CC2)n1 (stereo not drawn)           3 DSS

Now examine the next entry.
Please tell me: drug sensitivity score of Nc1ncnc2c1c(COc1cccc(Cl)c1)nn2C1CCOCC1 , system KURAMOCHI?
0 DSS

* * *

# Tested on: OVCAR8
# Procedure Details: drug sensitivity score (DSS2) on cancer cell count; higher = more sensitive; extreme values may be limits of the assay
# Recorded Conditions: co-cultured fibroblast: BJHTERT; 72 h
Classify as follows. Reported drug sensitivity score greater than or equal to 10 DSS: MET. Reported drug sensitivity score below: NOT MET.

Would you please look over these solved cases?
Compound	Qualitative Label
Cc1c2oc3c(C)ccc(C(=O)N[C@@H]4C(=O)N[C@H](C(C)C)C(=O)N5CCC[C@H]5C(=O)N(C)CC(=O)N(C)[C@@H](C(C)C)C(=O)O[C@@H]4C)c3nc-2c(C(=O)N[C@@H]2C(=O)N[C@H](C(C)C)C(=O)N3CCC[C@H]3C(=O)N(C)CC(=O)N(C)[C@@H](C(C)C)C(=O)O[C@@H]2C)c(N)c1=O	MET
O=C(Nc1ccncc1)C(=O)c1cn(Cc2ccc(Cl)cc2)c2ccccc12	MET
C=CC[C@@H]1/C=C(\C)C[C@H](C)C[C@H](OC)[C@H]2O[C@@](O)(C(=O)C(=O)N3CCCC[C@H]3C(=O)O[C@H](/C(C)=C/[C@@H]3CC[C@@H](O)[C@H](OC)C3)[C@H](C)[C@@H](O)CC1=O)[C@H](C)C[C@@H]2OC	NOT MET

Quick check: does CNc1ncc2cc(-c3cc(NC(=O)NCCC(C)(C)C)c(F)cc3C)c(C)nc2n1 have drug sensitivity score greater than or equal to 10 DSS?
MET

Decide: is the reported value of drug sensitivity score for COC(=O)N[C@@H](C)CNc1nccc(-c2cn(C(C)C)nc2-c2cc(Cl)cc(NS(C)(=O)=O)c2F)n1 equal to or greater than 10 DSS?
NOT MET

In plain terms: is recorded drug sensitivity score at least 10 DSS for CCCCNc1ncc(C(=O)NCc2ccc(-n3ccnc3)cc2)c(NC2CCC(O)CC2)n1 (configuration not stated) ?
NOT MET

Is the recorded value of drug sensitivity score equal to or greater than 10 DSS for this compound? COc1cccc2c1c(O)c(C(=O)N(C)c1ccc(C(F)(F)F)cc1)c(=O)n2C
NOT MET
